- system.name: human cannabinoid receptor type 2 (Homo sapiens, UniProt P34972)
- Construct: expressed in transfected cells; membrane preparation
- Sequence (P34972 whole entry): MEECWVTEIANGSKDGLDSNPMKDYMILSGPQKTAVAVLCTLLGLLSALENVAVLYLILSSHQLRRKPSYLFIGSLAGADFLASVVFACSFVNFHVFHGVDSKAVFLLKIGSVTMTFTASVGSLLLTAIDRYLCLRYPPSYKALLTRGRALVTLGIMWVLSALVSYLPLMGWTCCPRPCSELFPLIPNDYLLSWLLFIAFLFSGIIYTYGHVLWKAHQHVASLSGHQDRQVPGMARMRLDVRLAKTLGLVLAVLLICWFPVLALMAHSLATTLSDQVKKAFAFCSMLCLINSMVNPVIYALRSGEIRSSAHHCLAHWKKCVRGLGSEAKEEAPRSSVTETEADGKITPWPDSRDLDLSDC
- protocol: Human CB2 Radioligand Binding Assay
- recorded.conditions: competition with [3H] CP-55,940; membranes from stably transfected CHO CB2 cells; read-out: CB2 Ligand Binding Asssay EC50
pEC50: −log10 of the molar value.
assay.endpoint: pEC50

Completed entries (count: 5):
CCCC(=O)N1CCN(c2nc(-c3ccccc3Cl)nc3cccc(Cl)c23)CC1 | > 6.00
CC(C)(C)c1ccc(-c2nc(NCC3CC3)c3ccccc3n2)cc1 | > 6.00
CC(C)(C)CCNc1nc(-c2ccccc2Cl)nc2ccccc12 | < 6.00
CC(=O)N1CCN(c2nc(-c3ccccc3Cl)nc3ccccc23)CC1 | > 6.00
FC(F)(F)c1ccc(Cc2nc(N3CCCCC3)c3ccccc3n2)cc1 | < 6.00

Kindly give each listed record's pEC50.
1. CCC(=O)N1CCN(c2nc(-c3ccccc3Cl)nc3cccc(Cl)c23)CC1
2. CC(=O)N1CCN(c2nc(-c3ccc(Cl)cc3)nc3ccccc23)CC1
3. CC(=O)N1CCN(c2nc(-c3ccccc3Cl)nc3cccc(C)c23)CC1
4. COC(=O)c1ccc2nc(-c3ccccc3Cl)nc(N3CCN(C)CC3)c2c1

A:
> 6.00
< 6.00
> 6.00
> 6.00

I need pEC50 for every entry listed below, if you could help.
1. CC(C)(C)c1ccc2c(N3CCCC3)nc(Nc3ccc(F)cc3F)nc2c1
2. COC(=O)c1sccc1S(=O)(=O)NCc1nc(N2CCCC2)c2ccccc2n1
3. CC(=O)N1CCN(c2nc(C3CCCCC3)nc3ccc(Cl)cc23)CC1

A:
1. > 6.00
2. > 6.00
3. > 6.00

For the 4 compounds below, give their pEC50 values.
1. O=S(=O)(NCc1nc(N2CCCC2)c2ccccc2n1)c1ccc2ccccc2c1
2. FC(F)(F)c1ccc(-c2nc(N3CCOCC3)c3ccccc3n2)cc1
3. Clc1ccc(-c2nc(N3CCCC3)c3ccccc3n2)c(Cl)c1
4. CN(Cc1ccccc1)c1nc(-c2ccc(F)cc2F)nc2ccccc12

A:
1: < 6.00; 2: > 6.00; 3: < 6.00; 4: < 6.00

====

- system.name: human cannabinoid receptor type 2 (Homo sapiens, UniProt P34972)
- Construct: expressed in transfected cells; membrane preparation
- protocol: Human CB2 Radioligand Binding Assay
- recorded.conditions: competition with [3H] CP-55,940; membranes from stably transfected CHO CB2 cells; read-out: CB2 Ligand Binding Asssay EC50
assay.endpoint: EC50

Past entries and their recorded results:
CC(C)(C)c1ccc(-c2nc(N3CCCC3)c3cc(Cl)ccc3n2)cc1 [Example 278] | < 1000 nM
Fc1cccc2nc(-c3ccccc3Cl)nc(N3CCCC3)c12 [Example 248] | < 1000 nM
FC(F)(F)Oc1ccc(-c2nc(N3CCOCC3)c3ccccc3n2)cc1 [Example 141] | > 1000 nM

Give me EC50 for each of these compounds, listed below.
1. COC(=O)c1ccc2nc(-c3ccccc3Cl)nc(Nc3cccc(OC(F)(F)F)c3)c2c1 [Example 326]
2. CC1CCCCN1c1nc(-c2ccccc2Cl)nc2ccccc12 (stereo not drawn) [Example 59]
3. COc1ccc2nc(-c3ccccc3Cl)nc(N3CCN(C)CC3)c2c1 [Example 177]
4. Clc1ccccc1-c1nc(N2CCNCC2)c2ccccc2n1 [Example 82]
5. CC(=O)N1CCN(c2nc(-c3ccccc3F)nc3ccccc23)CC1 [Example 153]

A:
> 1000 nM
< 1000 nM
< 1000 nM
> 1000 nM
< 1000 nM

Please look at the items below and tell me EC50 for each one, in order.
1. CC(C)(C)c1ccc(-c2nc(NC3CCCCC3)c3ccccc3n2)cc1 [Example 129]
2. Clc1ccccc1Nc1nc(C2CCCCC2)nc2ccccc12 [Example 37]
3. FC(F)(F)c1cccc2nc(-c3ccccc3Cl)nc(N3CCCC3)c12 [Example 242]

A:
1: < 1000 nM; 2: > 1000 nM; 3: < 1000 nM

Each compound below has a recorded value; state its EC50.
1. Clc1ccccc1-c1nc(NCC2CC2)c2ccccc2n1 [Example 56]
2. CCOC(=O)N1CCN(c2nc(-c3ccccc3F)nc3cccc(F)c23)CC1 [Example 281]

A:
["> 1000 nM", "< 1000 nM"]

Okay, here is my list. What is EC50 for each of these?
1. CC(C)CC(=O)N1CCN(c2nc(-c3ccccc3Cl)nc3cccc(Cl)c23)CC1 [Example 283]
2. Cn1ccnc1N1CCN(c2nc(-c3ccccc3Cl)nc3ccccc23)CC1 [Example 257]
3. CCc1ccc2nc(-c3ccccc3Cl)nc(N3CCCC3)c2c1 [Example 176]
4. Clc1ccccc1-c1nc(N2CCCCC2)c2ccccc2n1 [Example 54]
5. Fc1ccc(-c2nc(N3CCCC3)c3ccccc3n2)cc1F [Example 14]
6. CC(C)(C)c1ccc(-c2nc(N3CCSCC3)c3ccccc3n2)cc1 [Example 114]
7. CCCCN1CCN(c2nc(-c3ccccc3Cl)nc3ccccc23)CC1 [Example 107]

A:
1. > 1000 nM
2. > 1000 nM
3. < 1000 nM
4. < 1000 nM
5. > 1000 nM
6. < 1000 nM
7. > 1000 nM
